Data credit: ChEMBL document CHEMBL4118246

Tested on: HepG2
assay.method.text: Cell cycle arrest in human HepG2 cells assessed as accumulation at G0/G1 phase at 10 uM by FACS analysis relative to control
Type: functional
quantity.measured: Activity (%)

                            compound_string  target_of_assay  reading_unit  value_observed
0  CN(C)CCNc1cncc(-c2ccc3[nH]cc(-c4cccc(F)c4F)c3c2)n1            HepG2             %            22.6
1  CN(C)CCNc1cncc(-c2ccc3[nH]cc(-c4ccc(S(C)(=O)=O)cc4)c3c2)n1            HepG2             %            52.5
2  CN(C)CCNc1cncc(-c2ccc3[nH]cc(-c4cc(C#N)ccc4F)c3c2)n1            HepG2             %            37.6
3  CN1CCC(CNc2ccc3ncc(-c4cccc(OC(F)(F)F)c4)n3n2)CC1            HepG2             %            36.9
4  CN(C)CCNc1cncc(-c2ccc3[nH]cc(-c4ccc(N)c(C#N)c4)c3c2)n1            HepG2             %              53
5  CN(C)CCNc1cncc(-c2ccc3[nH]cc(-c4ccc(S(N)(=O)=O)cc4)c3c2)n1            HepG2             %              58
